# System: human osteosarcoma cell line SJSA-1
# Test details: Inhibition of proliferation of human osteosarcoma cell line SJSA-1 (DAPI staining, In Cell Analyzer)
# Condition summary: Homo sapiens, SJSA-1, 72 h, read-out: IC50 (nM), inhibitory activity on proliferation of human osteosarcoma cell line SJSA-1, SJSA-1, incubated 72 h
We label by threshold. Values of IC50 strictly beneath 70 nM are class 1. Values of 70 nM and up are class 0.

Task: Given COc1cc(N(C)C)ncc1-c1nc2c(n1C(C)C)[C@]1(C(=O)Nc3cc(Cl)ccc31)N(c1cc(Cl)ccc1C)C2=O , is recorded IC50 strictly lower than 70 nM?
Output: class 0

Task: And then COc1cc(N(C)CCO)ccc1-c1nc2c(n1C(C)C)[C@@]1(C(=O)Nc3cc(Cl)ccc31)N(c1cc(Cl)ccc1C)C2=O , what is it?
Output: class 1

Task: And then CCc1ccc(Cl)cc1N1C(=O)c2nc(-c3cnc(OC)nc3OC)n(C(C)C)c2[C@@]12C(=O)Nc1cc(Cl)ccc12 , what is it?
Output: class 1

Task: And then COc1cc(OC(C)C)ncc1-c1nc2c(n1C(C)C)[C@@]1(C(=O)Nc3cc(Cl)ccc31)N(c1cc(Cl)cnc1C)C2=O , what is it?
Output: class 1

Task: And then COc1ccc(C(=O)O)cc1-c1nc2c(n1C(C)C)C1(C(=O)Nc3cc(Cl)ccc31)N(c1cc(Cl)ccc1C)C2=O (stereo not shown) , what is it?
Output: class 0

More entries:
Task: Given COc1cc(C(C)(C)C)ccc1-c1nc2c(n1C(C)C)[C@@]1(C(=O)Nc3cc(Cl)ccc31)N(c1cc(Cl)ccc1C)C2=O , is recorded IC50 strictly lower than 70 nM?
Output: class 1

Task: And then CCc1ccc(OC)c(-c2nc3c(n2C(C)C)[C@@]2(C(=O)Nc4cc(Cl)ccc42)N(c2cccc(Cl)c2)C3=O)c1 , what is it?
Output: class 1

Task: And then COc1cc(C2CC2)ncc1-c1nc2c(n1C(C)C)[C@@]1(C(=O)Nc3cc(Cl)ccc31)N(c1cc(Cl)cnc1C)C2=O , what is it?
Output: class 1

Task: And then COc1ncc(-c2cc3c(n2C(C)C)[C@]2(C(=O)Nc4cc(Cl)ccc42)N(c2cc(Cl)ccc2C)C3=O)c(OC)n1 , what is it?
Output: class 0

Task: And then COc1ncc(-c2nc3c(n2C(C)C)[C@]2(C(=O)Nc4cc(Cl)ccc42)N(c2cccc(Cl)c2)C3=O)c(OC)n1 , what is it?
Output: class 0

Task: And then COc1cc(C#N)ccc1-c1nc2c(n1C(C)C)[C@@]1(C(=O)Nc3cc(Cl)ccc31)N(c1cc(Cl)ccc1C)C2=O , what is it?
Output: class 1

Task: And then COc1cc(C(F)(F)F)ccc1-c1nc2c(n1C(C)C)[C@]1(C(=O)Nc3cc(Cl)ccc31)N(c1cc(Cl)ccc1C)C2=O , what is it?
Output: class 0

Task: And then COc1ccncc1-c1nc2c(n1C(C)C)[C@]1(C(=O)Nc3cc(Cl)ccc31)N(c1cc(Cl)ccc1C)C2=O , what is it?
Output: class 0
